- assay.system: PAPD5 (Homo sapiens, UniProt Q8NDF8)
- Construct: made in house
- Sequence (Q8NDF8 68-698 isoform Q8NDF8-5): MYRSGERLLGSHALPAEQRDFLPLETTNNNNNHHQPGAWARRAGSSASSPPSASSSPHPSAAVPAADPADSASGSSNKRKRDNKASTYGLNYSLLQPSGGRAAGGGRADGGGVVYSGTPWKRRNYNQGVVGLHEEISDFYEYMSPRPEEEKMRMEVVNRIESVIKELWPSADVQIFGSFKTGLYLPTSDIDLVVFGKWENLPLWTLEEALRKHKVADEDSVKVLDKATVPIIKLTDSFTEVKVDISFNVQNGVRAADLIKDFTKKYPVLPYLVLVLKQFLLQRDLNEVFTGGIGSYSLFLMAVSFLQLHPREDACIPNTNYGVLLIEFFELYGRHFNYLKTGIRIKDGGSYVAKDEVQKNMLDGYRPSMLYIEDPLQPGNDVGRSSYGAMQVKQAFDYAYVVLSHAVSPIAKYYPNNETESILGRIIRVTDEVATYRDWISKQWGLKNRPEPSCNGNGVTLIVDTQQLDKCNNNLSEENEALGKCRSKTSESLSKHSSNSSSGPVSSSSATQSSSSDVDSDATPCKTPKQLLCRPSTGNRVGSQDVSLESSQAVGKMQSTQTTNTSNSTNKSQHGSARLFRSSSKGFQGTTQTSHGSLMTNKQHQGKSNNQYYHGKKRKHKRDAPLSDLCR
- run.description: High-throughput luminescence (KinaseGlo) RNA polyadenylation assay, ATP utilization by recombinant PAPD5
- Assay type: biochemical
- experimental.setup: Table 4 (entries of Table 5); 33 μM compound; ratio of luminescence with inhibitor to DMSO
- Procedure: Optimal conditions for an in vitro RNA polyadenylation assay using recombinant PAPD5, ATP and an oligonucleotide substrate were identified. The HTS assay involved ATP utilization by PAPD5, which reads out as a decreased luminescence signal produced by luciferase (KinaseGlo, Promega, Madison, WI). 100 nl of compound dissolved in DMSO was transferred to each well of the assay plate via pin transfer. […] The fold change was the ratio of luminescence from a sample with inhibitor compared to that with DMSO. […]
measured.attribute: Fold-change determined at compound concentration 33 μM

compound=Cc1ccc(-c2ccc3nnc(C)n3n2)cc1S(=O)(=O)N1CCCC1 data_value=1.07
compound=CCOC(=O)C1CCN(c2nnc(Cc3ccncc3)c3ccccc23)CC1 data_value=1.308
compound=Cc1nn(-c2ccc(Cl)cc2)c2sc(C(=O)O)cc12 data_value=1.073
compound=Cc1cccc(C(=O)Nc2nc3nc(-c4ccccc4)cc(=O)n3[nH]2)c1 data_value=1.312
compound=COc1c2[nH]c3occc3c(OC)c-2ccc1=O data_value=1.197
compound=COc1ccc(-c2coc3c2c(C)cc2oc(=O)c(CC(=O)O)c(C)c23)cc1 data_value=1.303
compound=O=C(O)c1ccc(Nc2c(-c3cc(Br)ccc3O)nc3cnccn23)cc1 data_value=1.106
compound=O=C(NCCN1CCCC1)c1ccc(Cn2c(SCc3ccc(Cl)cc3)nc3ccncc32)cc1 data_value=1.106
compound=Cn1c(=O)c2c(nc(Sc3nnc(NC(=O)c4ccccc4Br)s3)n2C)n(C)c1=O data_value=1.107
compound=Cc1cc(=O)oc2cc(OCC(=O)Nc3ccc(O)c(C(=O)O)c3)ccc12 data_value=1.086
compound=CCCNC(=O)CSc1c2c(nc3ccc(Cl)cc13)CCCC2 data_value=1.105
compound=O=C(O)CSc1nnc2n(-c3ccccc3)c3ccccc3n12 data_value=1.249
compound=Cc1ccc(S(=O)(=O)NCc2ccc(-c3nn4cnnc4s3)cc2)cc1 data_value=1.103
compound=Cc1cc2oc(C(=O)Nc3nnc(C(C)C)s3)cc(=O)c2cc1C data_value=1.134
compound="COc1c2ccoc2nc2c(OC)cccc12 [Entry 92, 4,8-dimethoxyfuro[2,3-b]quinoline]" data_value=1.175
compound=Cc1ccc(-c2cn3c(n2)sc2ccc(C(=O)NCCCN4CCCCCC4)cc23)cc1 data_value=1.108
compound=Cn1c(=O)c2nc(SCCC(=O)O)n(Cc3ccccc3)c2n(C)c1=O data_value=1.122
compound=Cc1ccc(Cl)cc1NCc1nc2[nH]c3c(c(=O)n2n1)CCC3 data_value=1.013
compound="O=C(NCc1ccccn1)C1CCCN(c2ncnc3c2oc2ccccc23)C1 (stereo not shown)" data_value=1.077
compound=COc1ccc(NC(=O)c2ccc3c(SCC(=O)O)c4c(nc3c2)CCC4)c(OC)c1 data_value=1.097
compound="O=C(NCc1ccncc1)C1CCCN(c2ncnc3c2oc2ccccc23)C1 (stereo not shown)" data_value=1.096
compound=Cc1ccc(-c2n[nH]c3nc(-c4ccc(O)c(O)c4)cc(C(=O)O)c23)cc1 data_value=1.303
compound=Cc1ccccc1C(=O)Nc1nc2nc(-c3ccccc3)cc(=O)n2[nH]1 data_value=1.19
compound=COCCNC(=O)CSc1c2c(nc3cc(Cl)ccc13)CCCC2 data_value=1.098
compound=O=C(O)c1csc2nc[nH]c(=O)c12 data_value=1.136
